Known AUC(0-t) of a selection of compounds
experiment: Pharmacokinetic test in SD rats, intragastric administration; type: in vivo; conditions: rat, po, single intragastric administration, 25 mg/kg, plasma, read-out: Curve area AUClast

| compound | value units | AUC(0-t) |
| --- | --- | --- |
| CC(C)(C)NS(=O)(=O)c1cccc(N2CCc3cnc(Nc4ccc(OCCN5CCSCC5)cc4)nc32)c1 | ng·h/mL | 900 |
| CC(C)(C)NS(=O)(=O)c1cccc(N2CCc3cnc(Nc4ccc(CN5CCSCC5)cc4)nc32)c1 | ng·h/mL | 955 |
| CN1CCN(c2ccc(Nc3ncc4c(n3)N(c3cccc(S(=O)(=O)NC(C)(C)C)c3)CC4)cc2)CC1 | ng·h/mL | 934 |
| CC(C)(C)NS(=O)(=O)c1cccc(N2CCc3cnc(Nc4ccc(OCCN5CCCCC5)cc4)nc32)c1 | ng·h/mL | 812 |
